Sourced from the supplement of paper PMC10567573

Below is a list of entries, each paired with its recorded protein stability index value.
B1: TRAF3IP2 (parent)
chain: PRPPSNPPARGTLKTSNLPEELRK

Variants of: B1
Assay: protein stability index of a GFP-peptide fusion (GPS, HEK-293T) (PSI 1-6); higher = more stable;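 also: lentivirally expressed fusions sorted by FACS into six bins by GFP to DsRed ratio, PSI derived from sequencing read proportions per bin multiplied by bin number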
Settings: c terminus: a fixed tail appended
Lab note: jot the number down without any unit.

Known protein stability index results, listed for orientation:
MUTATION STRING: P19E
protein stability index: 5.1
--
MUTATION STRING: P4T
protein stability index: 3.97
--
MUTATION STRING: R23A
protein stability index: 4.7
--
MUTATION STRING: S16F
protein stability index: 4.47

For the variant T12L , what protein stability index is on record?
4.65

What protein stability index value was documented for this variant, P8R ?
4.43

Quick one: protein stability index of P3E ?
5.35
